Test: Pharmacokinetic analysis in mouse plasma and brain after a single i.p. injection
Format: in vivo
Settings: both sexes, plasma, intraperitoneal, wildtype mice P21-28, 10 mg/kg i.p., 90 min, n = 4, read-out: Plasma concentration, average
PROPERTY MEASURED: concentration at 90 min
In your response, the unit should come after the numeric value.

concentration at 90 min measured on COc1ccc(CNCCC(c2ccccc2)c2ccc3c(c2)OCO3)cc1 (stereo not shown) = 1020 ng/mL

====

Experiment: Pharmacokinetic analysis in mouse plasma and brain after a single i.p. injection
Assay type: in vivo
Settings: both sexes, plasma, intraperitoneal, wildtype mice P21-28, 10 mg/kg i.p., 60 min, n = 4, read-out: Plasma concentration, average
PROPERTY MEASURED: concentration at 60 min (ng/mL)
Answers are plain numbers, in ng/mL.

concentration at 60 min measured on COc1ccc(CNCCC(c2ccccc2)c2ccc3c(c2)OCO3)cc1 (stereo not shown) = 1370
